Origin of the recorded values: patent US20220142995A1

# SYSTEM_TESTED: mTOR (Homo sapiens)
# Sequence (P42345 1360-2549 limits assumed): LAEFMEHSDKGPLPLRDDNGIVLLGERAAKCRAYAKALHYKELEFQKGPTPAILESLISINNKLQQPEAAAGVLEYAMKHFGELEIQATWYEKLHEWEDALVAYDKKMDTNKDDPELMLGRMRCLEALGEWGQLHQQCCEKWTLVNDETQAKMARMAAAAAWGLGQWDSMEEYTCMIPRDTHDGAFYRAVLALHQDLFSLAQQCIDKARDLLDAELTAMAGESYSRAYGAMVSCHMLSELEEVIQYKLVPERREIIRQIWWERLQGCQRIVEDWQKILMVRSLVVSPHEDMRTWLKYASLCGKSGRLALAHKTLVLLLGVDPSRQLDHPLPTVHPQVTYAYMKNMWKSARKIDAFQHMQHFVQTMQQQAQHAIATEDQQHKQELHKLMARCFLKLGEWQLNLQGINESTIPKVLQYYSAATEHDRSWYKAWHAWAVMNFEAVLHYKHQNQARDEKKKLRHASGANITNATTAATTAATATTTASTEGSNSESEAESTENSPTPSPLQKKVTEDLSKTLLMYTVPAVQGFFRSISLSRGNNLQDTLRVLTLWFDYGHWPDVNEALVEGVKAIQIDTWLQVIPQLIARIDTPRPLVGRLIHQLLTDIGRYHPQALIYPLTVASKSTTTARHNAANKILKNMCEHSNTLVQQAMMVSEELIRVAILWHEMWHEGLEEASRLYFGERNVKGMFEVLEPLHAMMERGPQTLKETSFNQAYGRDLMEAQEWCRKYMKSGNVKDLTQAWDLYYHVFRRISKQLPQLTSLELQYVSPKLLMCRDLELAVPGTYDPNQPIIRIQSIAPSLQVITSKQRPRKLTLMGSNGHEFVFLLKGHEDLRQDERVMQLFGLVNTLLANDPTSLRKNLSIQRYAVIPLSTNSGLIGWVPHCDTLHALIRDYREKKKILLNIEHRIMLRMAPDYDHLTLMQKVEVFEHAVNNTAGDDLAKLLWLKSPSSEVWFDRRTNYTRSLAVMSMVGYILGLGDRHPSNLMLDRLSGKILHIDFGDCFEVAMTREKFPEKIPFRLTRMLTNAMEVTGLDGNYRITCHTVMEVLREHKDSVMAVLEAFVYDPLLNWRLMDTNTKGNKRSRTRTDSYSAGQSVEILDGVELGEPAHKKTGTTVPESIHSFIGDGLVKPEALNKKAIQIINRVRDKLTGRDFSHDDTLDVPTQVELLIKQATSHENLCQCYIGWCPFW
pIC50: −log10 of the molar value.
# pIC50 per entry

CCS(=O)(=O)Nc1cc(-c2cc3c4c(cnc3cc2F)N(C)C(=O)C42CCC2)cnc1OCCNC(C)C [Compound 570] : < 7.00

Okay, now this compound:
For the compound shown here, CC(C)NCCOc1ncc(-c2cc3c4c(cnc3cc2F)N(C)C(=O)C42CN(C(C)C)C2)cc1NS(C)(=O)=O [Compound 571] , give the reported pIC50.
< 7.00

* * *

# SYSTEM_TESTED: mTOR (Homo sapiens)
pIC50: −log10 of the molar value. Structures can show the parent of a compound that is named as a salt.
REPORTED_PROPERTY: pIC50

CC(C)NCCOc1ncc(-c2cc3c4c(cnc3cc2F)N(C)C(=O)C42CCC2)cc1NS(=O)(=O)C(C)C [Compound 568] : < 7.00

Any idea what pIC50 came out for CC[C@H]1C[C@]2(C1)C(=O)N(C)c1cnc3cc(F)c(-c4cnc(OCCNC(C)C)c(NS(C)(=O)=O)c4)cc3c12 [Compound 573] on mTOR (Homo sapiens)?
< 7.00

What is its pIC50 for mTOR (Homo sapiens)? Entry: CN1C(=O)C2(CCC2)c2c1cnc1ccc(-c3cnc(N4CC(N(C)C)C4)c(NS(C)(=O)=O)c3)cc21 [Compound 574, hydrochloride]
7.70
